System: cultured PBMCs of the allergic donors
Test: ELISPOT of IL-5 or IFNg production by cultured PBMCs of TG allergic donors in response to peptide
Type: cell-based, human
Conditions: Table 6; PP peptides recognized by T cells of grass allergic donors (n=20)
Experimental: Table 1 indicates for each of the 397 PG+ peptides in which non-grass pollen species a matching peptide with either less than 3, less than 2 or zero mismatches are found. […] In short, T cell immune reactivity was determined using PBMCs isolated from study participants and stored in liquid nitrogen until further use. […] Cytokine production by cultured PBMCs in response to antigen stimulation was measured by ELISPOT. […]
Measure Name: No of PP & Th+ peptides per NTGA
Give your answer as a number; write no unit.

Request the reported No of PP & Th+ peptides per NTGA associated with NTGA 26: Phl p wild type sequence, Table 2 (protein, Phleum Pratense) GVFTDKDKAAAHMKGGAKKVVISAPSKDAPMFVVGVNEDKYTSDVNIVSNASCTTNCLAPLAKIINDNFGIVEGLMTTVHSITATQKTVDGPSSKDWRGGRAASFNIIPSSTGAAKAVGKVLPELNGKLTGMSFRVPTVDVSVVDLTVRIEKAASYEDIKKAIKAASEGNLKGIMGYVEEDLVSTDFIGDSRSSIFDAKAGIALNDNFVKLVSWYDNEWGY 1
